system-under-test: human orexin-1 receptor (hOX1R) (Homo sapiens)
Construct: expressed in transfected cells; host or cells: Chinese hamster ovary (CHO) cells
Sequence (O43613 whole entry): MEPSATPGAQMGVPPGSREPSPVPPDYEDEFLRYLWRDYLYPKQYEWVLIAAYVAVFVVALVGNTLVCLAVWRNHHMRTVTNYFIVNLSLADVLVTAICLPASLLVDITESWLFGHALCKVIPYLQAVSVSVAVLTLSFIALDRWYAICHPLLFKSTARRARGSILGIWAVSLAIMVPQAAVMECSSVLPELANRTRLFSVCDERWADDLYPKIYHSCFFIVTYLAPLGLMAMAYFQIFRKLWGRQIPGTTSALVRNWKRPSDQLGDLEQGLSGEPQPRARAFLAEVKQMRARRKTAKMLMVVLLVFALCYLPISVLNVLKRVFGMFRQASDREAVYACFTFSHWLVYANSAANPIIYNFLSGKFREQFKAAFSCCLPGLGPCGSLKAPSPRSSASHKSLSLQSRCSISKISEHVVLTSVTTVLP
protocol: Orexin antagonistic activity assay (intracellular Ca2+, FDSS) in CHO cells expressing hOX1R
Assay type: cell-based
test-settings: CHO cells expressing hOX1R; ligand peptide 300 pM; Fluo-3 maximum fluorescence intensity; read-out: IC50 value OX1
Kindly supply the reported IC50 values for the records listed here.
Answer with a number only, understood to be in nM.

Reported IC50 for Cc1ccc(-n2nccn2)c(C(=O)N2C[C@H](c3nc4cc(Cl)ccc4o3)CC[C@H]2C)n1 [Example 1] : what is it?
11

Reported IC50 for Cc1ccc(-n2nccn2)c(C(=O)N2C[C@H](c3nc4cc(Cl)cnc4o3)CC[C@H]2C)c1 [Example 71] : what is it?
106

Reported IC50 for Cc1ccc(-c2ncccn2)c(C(=O)N2C[C@H](c3nc4cc(F)cc(F)c4o3)CC[C@H]2C)c1 [Example 63] : what is it?
29.1

Reported IC50 for COc1ccc(-n2nccn2)c(C(=O)N2C[C@H](c3nc4cc(Cl)ccc4o3)CC[C@H]2C)c1 [Example 25] : what is it?
387

Reported IC50 for Cc1ccc(-n2nccn2)c(C(=O)N2C[C@H](c3nc4c(F)cc(F)cc4o3)CC[C@H]2C)c1 [Example 60] : what is it?
93.3

Reported IC50 for C[C@@H]1CC[C@@H](c2nc3ccc(Cl)cc3o2)CN1C(=O)c1ccc(F)cc1-n1nccn1 [Example 47] : what is it?
58.6

Reported IC50 for C[C@@H]1CC[C@@H](c2nc3cc(Cl)ccc3o2)CN1C(=O)c1ccc(F)cc1-n1nccn1 [Example 14] : what is it?
41.6

* * *

system-under-test: orexin-2 receptor (hOX2R) (Homo sapiens, UniProt O43614)
Construct: expressed in transfected cells; host or cells: Chinese hamster ovary (CHO) cells
Sequence (O43614 1-444): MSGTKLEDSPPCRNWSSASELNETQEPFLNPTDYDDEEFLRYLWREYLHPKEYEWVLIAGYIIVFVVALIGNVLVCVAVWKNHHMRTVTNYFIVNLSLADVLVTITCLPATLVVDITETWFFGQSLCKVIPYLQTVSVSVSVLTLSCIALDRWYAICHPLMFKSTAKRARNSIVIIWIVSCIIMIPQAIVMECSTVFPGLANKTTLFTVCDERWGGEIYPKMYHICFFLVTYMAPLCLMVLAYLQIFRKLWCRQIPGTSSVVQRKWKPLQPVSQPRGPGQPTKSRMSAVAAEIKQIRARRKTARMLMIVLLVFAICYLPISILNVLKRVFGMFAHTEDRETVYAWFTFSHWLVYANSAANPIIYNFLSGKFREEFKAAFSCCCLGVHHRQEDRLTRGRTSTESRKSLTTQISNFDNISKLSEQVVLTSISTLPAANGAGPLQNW
protocol: Orexin antagonistic activity assay (intracellular Ca2+, FDSS) in CHO cells expressing hOX2R
Type: cell-based
test-settings: CHO cells expressing hOX2R; ligand peptide 3 nM; Fluo-3 maximum fluorescence intensity; read-out: IC50 value OX2
Kindly supply the reported pIC50 values for the records listed here.
Expect pIC50 as a plain number equal to -log10 of the molar concentration.

Reported pIC50 for Cc1ccc(-n2nccn2)c(C(=O)N2C[C@H](c3nc4cc(Cl)cnc4o3)CC[C@H]2C)c1 : what is it?
8.21

Reported pIC50 for C[C@@H]1CC[C@@H](c2nc3cc(F)ccc3o2)CN1C(=O)c1ccccc1-n1nccn1 : what is it?
8.82

Reported pIC50 for C[C@@H]1CC[C@@H](c2nc3cc(Cl)cnc3o2)CN1C(=O)c1ccc(F)cc1-n1nccn1 : what is it?
7.09

Reported pIC50 for Cc1ccc(-c2ncccn2)c(C(=O)N2CC(c3nc4cc(Cl)ccc4o3)CC[C@H]2C)n1 (single isomer, unassigned) : what is it?
7.76

* * *

system-under-test: orexin-2 receptor (hOX2R) (Homo sapiens, UniProt O43614)
Construct: expressed in transfected cells; host or cells: Chinese hamster ovary (CHO) cells
Sequence (O43614 1-444): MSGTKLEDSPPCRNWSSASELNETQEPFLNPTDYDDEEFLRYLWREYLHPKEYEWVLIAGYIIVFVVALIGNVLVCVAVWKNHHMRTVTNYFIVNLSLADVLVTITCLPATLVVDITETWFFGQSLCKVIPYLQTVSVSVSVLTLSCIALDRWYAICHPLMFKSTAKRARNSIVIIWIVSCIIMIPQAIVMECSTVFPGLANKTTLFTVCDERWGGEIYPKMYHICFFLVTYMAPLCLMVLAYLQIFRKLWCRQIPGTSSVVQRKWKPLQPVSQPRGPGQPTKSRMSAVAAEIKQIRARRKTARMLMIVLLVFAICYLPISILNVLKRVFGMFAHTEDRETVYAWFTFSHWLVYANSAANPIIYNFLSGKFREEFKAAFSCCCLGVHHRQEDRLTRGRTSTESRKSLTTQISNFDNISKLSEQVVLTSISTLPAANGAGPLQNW
protocol: Orexin antagonistic activity assay (intracellular Ca2+, FDSS) in CHO cells expressing hOX2R
Assay type: cell-based
test-settings: CHO cells expressing hOX2R; ligand peptide 3 nM; Fluo-3 maximum fluorescence intensity; read-out: IC50 value OX2
Kindly supply the reported pIC50 values for the records listed here.
Expect pIC50 as a plain number equal to -log10 of the molar concentration.

Reported pIC50 for C[C@@H]1CC[C@@H](c2nc3cc(Cl)ccc3o2)CN1C(=O)c1cccc(F)c1-n1nccn1 [Example 15] : what is it?
8.01

Reported pIC50 for Cc1ccc(-n2nccn2)c(C(=O)N2C[C@H](c3nc4cc(F)c(F)cc4o3)CC[C@H]2C)c1 [Example 50] : what is it?
8.07

Reported pIC50 for C[C@@H]1CC[C@@H](c2nc3cc(F)ccc3o2)CN1C(=O)c1c(F)cccc1-n1nccn1 [Example 35] : what is it?
8.30

Reported pIC50 for Cc1ccc(-n2nccn2)c(C(=O)N2C[C@H](c3nc4cc(F)cc(F)c4o3)CC[C@H]2C)n1 [Example 64] : what is it?
7.55

* * *

system-under-test: human orexin-1 receptor (hOX1R) (Homo sapiens)
Construct: expressed in transfected cells; host or cells: Chinese hamster ovary (CHO) cells
protocol: Orexin antagonistic activity assay (intracellular Ca2+, FDSS) in CHO cells expressing hOX1R
Assay type: cell-based
test-settings: CHO cells expressing hOX1R; ligand peptide 300 pM; Fluo-3 maximum fluorescence intensity; read-out: IC50 value OX1
Kindly supply the reported IC50 values for the records listed here.
Answer with a number only, understood to be in nM.

Reported IC50 for C[C@@H]1CC[C@@H](c2nc3cc(F)ccc3o2)CN1C(=O)c1cc(F)ccc1-n1nccn1 : what is it?
111

Reported IC50 for C[C@@H]1CC[C@@H](c2nc3cc(F)c(F)cc3o2)CN1C(=O)c1cc(Cl)ccc1-c1ncccn1 : what is it?
56.3

Reported IC50 for Cc1ccc(-n2nccn2)c(C(=O)N2C[C@H](c3nc4cc(F)ccc4o3)CC[C@H]2C)c1 (single isomer, unassigned) : what is it?
4.8

Reported IC50 for Cc1ccc(-n2nccn2)c(C(=O)N2C[C@H](c3nc4cc(C#N)ccc4o3)CC[C@H]2C)c1 : what is it?
164

Reported IC50 for Cc1ccc(-c2ncccn2)c(C(=O)N2C[C@H](c3nc4cc(F)ccc4o3)CC[C@H]2C)c1 (single isomer, unassigned) : what is it?
0.7

Reported IC50 for Cc1ccc(-n2nccn2)c(C(=O)N2C[C@H](c3nc4ccc(Cl)cc4o3)CC[C@H]2C)c1 : what is it?
4.1

Reported IC50 for C[C@@H]1CC[C@@H](c2nc3cc(Cl)ccc3o2)CN1C(=O)c1cc(F)ccc1-c1ncccn1 (single isomer, unassigned) : what is it?
54.5

* * *

Kindly supply the reported IC50 values for the records listed here.
system-under-test: orexin-2 receptor (hOX2R) (Homo sapiens)
Construct: expressed in transfected cells; host or cells: Chinese hamster ovary (CHO) cells
protocol: Orexin antagonistic activity assay (intracellular Ca2+, FDSS) in CHO cells expressing hOX2R
Type: cell-based
test-settings: CHO cells expressing hOX2R; ligand peptide 3 nM; Fluo-3 maximum fluorescence intensity; read-out: IC50 value OX2
Answer with a number only, understood to be in nM.

For orexin-2 receptor (hOX2R) (Homo sapiens), provide IC50 of C[C@@H]1CC[C@@H](c2nc3cc(Cl)ccc3o2)CN1C(=O)c1cc(C#N)ccc1-n1nccn1 [Example 21] please.
155

For orexin-2 receptor (hOX2R) (Homo sapiens), provide IC50 of Cc1ccc(-n2nccn2)c(C(=O)N2C[C@H](c3nc4ccc(F)cc4o3)CC[C@H]2C)n1 (single isomer, unassigned) [Example 12] please.
105

For orexin-2 receptor (hOX2R) (Homo sapiens), provide IC50 of COc1cnc(-c2ccc(F)cc2C(=O)N2C[C@H](c3nc4cc(Cl)ccc4o3)CC[C@H]2C)nc1 [Example 24] please.
8.5

For orexin-2 receptor (hOX2R) (Homo sapiens), provide IC50 of Cc1ccc(-n2nccn2)c(C(=O)N2C[C@H](c3nc4cc(OC(F)(F)F)ccc4o3)CC[C@H]2C)n1 [Example 42] please.
919

For orexin-2 receptor (hOX2R) (Homo sapiens), provide IC50 of C[C@@H]1CC[C@@H](c2nc3cc(F)c(F)cc3o2)CN1C(=O)c1ccc(F)cc1-n1nccn1 [Example 55] please.
9.4

For orexin-2 receptor (hOX2R) (Homo sapiens), provide IC50 of C[C@@H]1CC[C@@H](c2nc3cc(Cl)ccc3o2)CN1C(=O)c1cc(F)ccc1-c1ncc(F)cn1 [Example 23] please.
22.5

For orexin-2 receptor (hOX2R) (Homo sapiens), provide IC50 of C[C@@H]1CC[C@@H](c2nc3cc(F)ccc3o2)CN1C(=O)c1ccccc1-c1ncccn1 [Example 31] please.
29.7
